# Test system: SW-620 colon
# Test description: NCI tumour cell line growth inhibition, 48 h; in the data active means GI50 below about 0.43 µM; inactive means the rest
Please answer using one outcome listed in true for active, false for inactive

{"Compound": "O=[N+]([O-])c1cc([N+](=O)[O-])c(Cl)c(Cl)c1Cl", "Class": "false"}
{"Compound": "CN(C)c1ccc2c(c1)CN1C(=O)c3ccccc3C1=N2", "Class": "false"}
{"Compound": "Cc1cc(N2CCN(C)CC2)nc(NCc2cc(Nc3ccnc4cc(Cl)ccc34)ccc2F)n1", "Class": "false"}
{"Compound": "O=C(Cn1c(=O)c(-c2ccccc2)nc2ccccc21)c1ccc(Cl)cc1", "Class": "false"}
{"Compound": "N#CC(C#N)=Cc1c(-c2ccccc2)[nH]c2ccccc12", "Class": "false"}
{"Compound": "NC(=O)c1cc(-c2ccncc2)cc(-c2ccccc2)c1N", "Class": "false"}
{"Compound": "COc1cc(-c2n/c(=C\\c3c(O)[nH]c4ccc(Cl)cc34)cc3c2=Nc2ccccc2-3)cc(OC)c1OC", "Class": "true"}
{"Compound": "COc1cc(-c2nn(-c3ccc(NC(=O)Nc4ccc(Cl)c(Cl)c4)cc3)cc2-c2ccncc2)ccc1Cl", "Class": "false"}
{"Compound": "O=S(=O)(Nc1cc(Br)c(O)c2ccccc12)c1ccc(F)cc1", "Class": "false"}
{"Compound": "CCOC(=O)C1=C(C)NC2SC(=O)/C(=C\\c3ccccc3Cl)N2C1c1ccccc1 (stereo not given)", "Class": "false"}

Exercise: Could you check what this test reported for `CC(=O)[CH-]C(=O)c1ccccc1.CC(=O)[CH-]C(=O)c1ccccc1.COc1cccc([O-])c1[O-].[Ti+4]` ?
Key: false

Exercise: Could you check what this test reported for `COc1ccc(C[n+]2c3ccccc3n3c4ccc(N)cc4ccc32)c(OC)c1OC` ?
Key: false

Exercise: Could you check what this test reported for `C=CCn1c(=O)c2cnc(Nc3ccc(N4CCN(C)CC4)cc3)nc2n1-c1ccc2c(n1)[C@@](O)(CC)CC2` ?
Key: false

Exercise: Could you check what this test reported for `CC(=O)Nc1ccc(-c2c3nc(c(-c4cc5ccccc5[n+](C)c4)c4ccc([nH]4)c(-c4ccc(NC(C)=O)cc4)c4nc(c(-c5cc6ccccc6[n+](C)c5)c5ccc2[nH]5)C=C4)C=C3)cc1` ?
Key: false

Exercise: Could you check what this test reported for `CC[C@@]1(OC(=O)CN)C(=O)OCc2c1cc1n(c2=O)Cc2cc3cc4c(cc3nc2-1)OCO4` ?
Key: true

----------
# Test system: SN12C renal
# Test description: NCI tumour cell line growth inhibition, 48 h
Readout: TGI

Example molecules with recorded TGI:
{"Molecule": "C=C(C)[C@@H]1CC[C@]2(C)CC[C@]3(C)[C@H](CC[C@@H]4[C@@]5(C)CC[C@H](OC(=O)c6ccccc6)C(C)(C)[C@@H]5CC[C@]43C)[C@@H]12", "Tested target": "SN12C renal", "TGI": "> 100 µM"}
{"Molecule": "CN(Cc1cnc(N)nc1N)c1ccc(C(=O)O)cc1", "Tested target": "SN12C renal", "TGI": "> 100 µM"}

# batch: return TGI for each of the 7 molecules below
1. COc1cc(-c2n/c(=C\c3c(O)[nH]c4ccc(Cl)cc34)cc3c2=Nc2ccccc2-3)cc(OC)c1OC
2. COC1(C(C)(C)C)C=C(C(C)(C)C)P(=O)(O)O1 (centres undefined)
3. CCCCCCCC(=O)OC[C@@H](C[As](=O)(O)O)OC(=O)CCCCCCC
4. CC1=CC[C@@H]2C(C)(C)C(=O)CC[C@@]2(C)[C@@H]1COc1ccc2ccc(=O)oc2c1
5. N=C(N)C1CN(CCc2cnc[nH]2)C(=O)NC1=O (centres undefined)
6. Clc1cc(OCc2nn3c(Cc4ccccc4)nnc3s2)ccc1OCc1nn2c(Cc3ccccc3)nnc2s1
7. CC1CC(=O)Nc2cc(Cl)ccc2N1C(=O)C1CC1 (centres undefined)

Key:
1. 2.36 µM
2. > 100 µM
3. 23.3 µM
4. > 100 µM
5. > 100 µM
6. > 100 µM
7. > 100 µM
